biological target: WT EZH2 (Homo sapiens (Human), UniProt Q15910); assay: WT EZH2 nucleosome assay (10X SAM, high SAM conditions); type: biochemical; conditions: 15 uM SAM, Ki app from competitive inhibition fit, read-out: WT EZH2 Nucleosome assay (10X SAM) Ki
Sequence (Q15910 whole entry, looked up, one chain of several): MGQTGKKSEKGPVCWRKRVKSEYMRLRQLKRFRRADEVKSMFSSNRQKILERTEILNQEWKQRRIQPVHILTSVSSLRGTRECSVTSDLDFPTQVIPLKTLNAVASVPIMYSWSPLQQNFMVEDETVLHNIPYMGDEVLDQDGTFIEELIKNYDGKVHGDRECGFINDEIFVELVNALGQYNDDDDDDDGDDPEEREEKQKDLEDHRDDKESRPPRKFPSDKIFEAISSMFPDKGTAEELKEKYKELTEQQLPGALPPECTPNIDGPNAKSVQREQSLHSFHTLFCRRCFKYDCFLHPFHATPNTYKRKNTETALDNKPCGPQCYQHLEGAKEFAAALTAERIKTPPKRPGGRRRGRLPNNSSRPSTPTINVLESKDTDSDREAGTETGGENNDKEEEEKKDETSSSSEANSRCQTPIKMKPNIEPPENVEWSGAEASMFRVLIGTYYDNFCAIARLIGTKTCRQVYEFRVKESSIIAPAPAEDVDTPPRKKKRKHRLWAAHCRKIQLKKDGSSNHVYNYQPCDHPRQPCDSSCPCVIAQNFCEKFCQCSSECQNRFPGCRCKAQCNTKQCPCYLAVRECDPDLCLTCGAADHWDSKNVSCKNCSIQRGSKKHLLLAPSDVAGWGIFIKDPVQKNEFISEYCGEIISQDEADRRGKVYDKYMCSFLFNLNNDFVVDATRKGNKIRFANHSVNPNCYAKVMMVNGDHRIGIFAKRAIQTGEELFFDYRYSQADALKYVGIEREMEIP
pKi: −log10 of the molar value.
MEASURE_NAME: pKi

1. Cc1cc(C)c(CN2CCc3ccc(C(CO)C4CCOC4)c(Cl)c3C2=O)c(=O)[nH]1 (single isomer, unassigned) [Example 99] :: 8.52
2. COC(c1cc(Cl)c2c(c1Cl)C(=O)N(Cc1c(C)cc(C)[nH]c1=O)CC2)C1CC(=O)N(C)C1 (single isomer, unassigned) [Example 180] :: 6.41
3. COc1cc(C)[nH]c(=O)c1CN1CCc2c(C)cc(C(OC)C3CCS(=O)(=O)CC3)c(Cl)c2C1=O (single isomer, unassigned) [Example 130] :: 6.66
4. COC(c1cc(Cl)c2c(c1Cl)C(=O)N(Cc1c(C)cc(C)[nH]c1=O)CC2)C1CN(C(=O)[C@H](C)O)C1 (single isomer, unassigned) [Example 172] :: 9.10
5. COC(c1cc(Cl)c2c(c1Cl)C(=O)N(Cc1c(C)cc(C)[nH]c1=O)CC2)C1CCNCC1 (single isomer, unassigned) [Example 166] :: 9.70
6. Cc1cc(C)c(CN2CCc3c(Cl)cc(C(CO)N4CCCC4)c(Cl)c3C2=O)c(=O)[nH]1 (racemic) [Example 57] :: 6.39
7. Cc1cc(C)c(CN2CCc3c(Cl)cc(C(C)C4CN(S(C)(=O)=O)C4)c(Cl)c3C2=O)c(=O)[nH]1 (single isomer, unassigned) [Example 186] :: 7.85
8. COc1cc(C)[nH]c(=O)c1CN1CCc2c(C)cc(C(C)C3COC3)c(Cl)c2C1=O (single isomer, unassigned) [Example 198] :: 11.00

A. COc1cc(C)[nH]c(=O)c1CN1CCc2c(Cl)cc(C(C3COC3)N(C)C)c(Cl)c2C1=O (single isomer, unassigned) [Example 204]
B. Cc1cc(C)c(CN2CCc3ccc(C(CO)C4CCOC4)c(Cl)c3C2=O)c(=O)[nH]1 (single isomer, unassigned) [Example 96]
I would appreciate it if you could say which entry, A or B , has the lower pKi value. Identify your pick by its label.
B
(B: 6.69, A: 8.70)

I. COC(c1ccc2c(c1Cl)C(=O)N(Cc1c(C)cc(C)[nH]c1=O)CC2)C1CCOC1 (single isomer, unassigned) [Example 135]
II. COC(c1cc(Cl)c2c(c1Cl)C(=O)N(Cc1c(C)cc(C)[nH]c1=O)CC2)[C@@H](C)CO (single isomer, unassigned) [Example 142]
Could you tell me which of I and II has the lower pKi reading? API: response body contains the label of the selected item.
II
(II: 8.10, I: 8.70)

---

biological target: EZH2 Mutant Y641N (Homo sapiens (Human), UniProt Q15910, Y641N); test: EZH2 Mutant Y641N nucleosome assay; assay type: biochemical; details: PRC2 4-protein complex 6 nM, 1.5 μM SAM, HeLa oligonucleosomes; read-out: EZH2 Mutant Y641N Nucleosome assay IC50
Sequence (Q15910 whole entry Y641N, looked up): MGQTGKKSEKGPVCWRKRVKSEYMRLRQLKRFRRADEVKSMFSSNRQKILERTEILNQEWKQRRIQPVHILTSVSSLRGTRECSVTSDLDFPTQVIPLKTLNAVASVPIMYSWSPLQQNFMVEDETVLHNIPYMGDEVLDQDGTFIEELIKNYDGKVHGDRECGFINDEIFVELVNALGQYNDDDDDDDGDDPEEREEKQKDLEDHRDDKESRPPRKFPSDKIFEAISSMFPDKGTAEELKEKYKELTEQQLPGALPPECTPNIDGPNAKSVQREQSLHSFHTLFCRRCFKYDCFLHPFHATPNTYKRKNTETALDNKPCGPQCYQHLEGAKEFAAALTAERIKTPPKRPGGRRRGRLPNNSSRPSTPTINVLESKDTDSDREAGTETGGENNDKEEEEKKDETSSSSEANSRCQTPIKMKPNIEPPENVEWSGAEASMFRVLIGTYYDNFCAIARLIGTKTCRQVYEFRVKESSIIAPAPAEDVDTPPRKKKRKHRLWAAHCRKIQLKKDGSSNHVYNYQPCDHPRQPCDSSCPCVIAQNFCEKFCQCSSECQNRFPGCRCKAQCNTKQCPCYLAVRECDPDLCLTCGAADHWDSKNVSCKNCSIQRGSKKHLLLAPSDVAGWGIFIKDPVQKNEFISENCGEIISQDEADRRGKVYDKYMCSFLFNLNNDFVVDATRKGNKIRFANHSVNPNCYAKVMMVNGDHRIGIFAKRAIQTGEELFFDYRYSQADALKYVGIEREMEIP
Sequence (O75530 whole entry partner, looked up): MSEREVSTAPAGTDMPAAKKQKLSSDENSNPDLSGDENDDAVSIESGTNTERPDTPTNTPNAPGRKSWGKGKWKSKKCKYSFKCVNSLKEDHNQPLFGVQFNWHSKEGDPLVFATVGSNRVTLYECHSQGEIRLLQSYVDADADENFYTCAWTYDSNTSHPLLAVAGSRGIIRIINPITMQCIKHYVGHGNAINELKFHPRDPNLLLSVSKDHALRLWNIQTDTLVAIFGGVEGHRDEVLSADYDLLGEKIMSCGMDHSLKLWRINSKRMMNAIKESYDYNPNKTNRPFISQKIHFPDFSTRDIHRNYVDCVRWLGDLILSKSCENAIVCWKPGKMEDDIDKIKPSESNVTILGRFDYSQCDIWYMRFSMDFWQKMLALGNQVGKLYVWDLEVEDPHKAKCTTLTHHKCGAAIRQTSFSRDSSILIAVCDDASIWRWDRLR
Sequence (Q15022 whole entry partner, looked up): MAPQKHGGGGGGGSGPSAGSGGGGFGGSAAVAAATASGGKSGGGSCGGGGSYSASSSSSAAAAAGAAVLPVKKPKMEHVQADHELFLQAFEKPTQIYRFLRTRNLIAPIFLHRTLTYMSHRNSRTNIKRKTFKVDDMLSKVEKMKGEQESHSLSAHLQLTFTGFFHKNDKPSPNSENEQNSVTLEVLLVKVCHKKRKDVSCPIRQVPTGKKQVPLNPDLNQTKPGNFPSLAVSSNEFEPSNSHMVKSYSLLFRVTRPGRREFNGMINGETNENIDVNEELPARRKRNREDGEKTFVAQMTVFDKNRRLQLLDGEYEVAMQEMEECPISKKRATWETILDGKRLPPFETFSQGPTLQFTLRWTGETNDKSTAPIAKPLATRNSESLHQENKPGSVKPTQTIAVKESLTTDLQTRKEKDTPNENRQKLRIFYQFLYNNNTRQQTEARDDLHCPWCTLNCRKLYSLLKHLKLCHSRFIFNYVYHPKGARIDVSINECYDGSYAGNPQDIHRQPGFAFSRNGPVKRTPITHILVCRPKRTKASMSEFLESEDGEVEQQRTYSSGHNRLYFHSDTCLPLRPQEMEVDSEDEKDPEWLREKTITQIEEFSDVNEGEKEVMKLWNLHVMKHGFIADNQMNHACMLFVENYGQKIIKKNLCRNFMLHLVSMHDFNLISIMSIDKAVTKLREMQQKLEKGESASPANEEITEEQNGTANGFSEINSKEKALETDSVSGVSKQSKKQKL
Sequence (Q09028 whole entry partner, looked up): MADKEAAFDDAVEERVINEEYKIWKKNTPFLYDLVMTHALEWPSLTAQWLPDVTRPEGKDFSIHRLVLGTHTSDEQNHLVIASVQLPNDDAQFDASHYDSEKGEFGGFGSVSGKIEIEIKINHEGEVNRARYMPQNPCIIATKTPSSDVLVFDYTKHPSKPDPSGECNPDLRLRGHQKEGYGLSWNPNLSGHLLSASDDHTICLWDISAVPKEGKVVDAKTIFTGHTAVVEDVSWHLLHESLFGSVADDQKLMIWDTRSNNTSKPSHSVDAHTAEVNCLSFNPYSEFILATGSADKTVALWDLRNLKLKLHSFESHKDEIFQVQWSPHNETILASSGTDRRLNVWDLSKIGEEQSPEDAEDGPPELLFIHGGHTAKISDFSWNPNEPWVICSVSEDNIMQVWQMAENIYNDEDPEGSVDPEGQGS
MEASURE_NAME: IC50 (nM)

1. COC(c1cc(Cl)c2c(c1Cl)C(=O)N(Cc1c(C)cc(C)[nH]c1=O)CC2)C1CCOCC1 (single isomer, unassigned) [Example 51] :: 2
2. CC(=C1CCNCC1)c1cc(Cl)c2c(c1Cl)C(=O)N(Cc1c(C)cc(C)[nH]c1=O)CC2 :: 7

a. Cc1cc(C)c(CN2CCc3c(Cl)cc([C@@H](CC#N)[C@@H]4CCOC4)c(Cl)c3C2=O)c(=O)[nH]1 (single isomer, unassigned)
b. Cc1cc(C)c(CN2CCc3c(Cl)cc(C(C)CCO)c(Cl)c3C2=O)c(=O)[nH]1 (single isomer, unassigned) [Example 39]
Please indicate which has the smaller reported IC50: a , or b . Give the label under which the chosen entry appears.
a
